# system_name: T1, human αvβ3 integrin ITGAVB3 (human, UniProt P06756 31-992; P05106 27-718, limits assumed)
# T1 construct: Recombinant heterodimer used as immunogen, ELISA coating and SPR ligand; also called A5B3; A5b3
# method_summary: ELISA of soluble VHH, induced at 37 C; coating not given
property: OD490
# print the numeric value only

Reference set, count: 2
binder="VHH-22 (VHH, also called clone 22) VHH: QVQLVESGGGSVQAGGSLRLSCVVSGYTCSVYDMIWYRQPPGKEREFVSLINSNGRTTYADSVKGRFTISQNNAKNTVYLQMNSLKPEDTAMYYCHAACYSPSRLNYWGQGTLVTVSS" property=OD490 result_number=0.386
binder="VHH-23 (VHH, also called clone 23) VHH: HVQLVESGGGSVQTGGSLRLSCAASGYTSSTVYMAWFRQTPGKQREGVAAIYTGGGPTYYADSVKGRFTISQDNAKNTVYLQMNTLKPEDTAMYYCAADRYVYRLVTNWYRPSFYTYWGQGTQVTVSS" property=OD490 result_number=0.113

We now examine a further binder.
Asked: Please indicate OD490 recorded for VHH-17 (VHH, also called clone 17) VHH: DVQLVESGGGSVQPGESLRLSCVASGYTVSSSCMAWFRQAPGKEREVVATIVVTSDTTSTFYADSVKGRFTISPDNAKNTLNLQMNSLEPSDTAMYYCAADRKWNVCSRGYRYTPNWANQFTFWGQGTLVTVSS
Given back: 0.125

All values here come from patent US20220133913A1.
